Molecular target: human recombinant 5-HT2C receptor (Homo sapiens (Human), UniProt P28335)
Sequence (P28335 33-458): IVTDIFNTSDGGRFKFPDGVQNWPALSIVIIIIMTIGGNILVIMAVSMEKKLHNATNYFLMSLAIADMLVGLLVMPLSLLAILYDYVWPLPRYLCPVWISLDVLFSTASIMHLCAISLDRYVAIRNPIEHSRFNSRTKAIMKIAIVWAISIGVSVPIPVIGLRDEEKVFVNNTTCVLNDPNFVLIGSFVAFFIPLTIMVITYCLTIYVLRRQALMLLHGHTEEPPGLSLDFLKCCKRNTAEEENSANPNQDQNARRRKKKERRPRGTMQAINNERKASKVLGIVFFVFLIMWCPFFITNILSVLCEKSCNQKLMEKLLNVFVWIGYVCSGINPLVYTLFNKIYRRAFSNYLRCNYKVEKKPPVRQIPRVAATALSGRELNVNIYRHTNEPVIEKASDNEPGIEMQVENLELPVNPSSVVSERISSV
Experiment: 5-HT2C receptor binding inhibition test ([3H]-Mesulergine)
Settings: Jump-In HEK cell membrane, [3H]-Mesulergine; read-out: human serotonin 5-HT2C receptor binding inhibitory activity, Ki value
pKi: −log10 of the molar value.
Decision: pKi >= 9 yields true (1), all other cases yield false (0).

moleculeSmiles: CC(C)COc1ccc(CN(Cc2ccn(C)n2)C(=O)N[C@H]2CCN(C)CC23CC3)cc1
groupLabel: false (0)
--
moleculeSmiles: CCCCOc1ccc(CN(Cc2cnn(C)n2)C(=O)NC2CCN(C)CC2)c(F)c1
groupLabel: true (1)
--
moleculeSmiles: CCCc1ccc(CN(Cc2coc(C)n2)C(=O)NC2CCN(C)CC2)cc1F
groupLabel: true (1)
--
moleculeSmiles: CC(C)COc1ccc(CN(Cc2ccn(C)n2)C(=O)CC2CCN(C)CC2)cc1
groupLabel: false (0)
--
moleculeSmiles: Cc1ccc(CN(Cc2ccc(OCC(C)C)cc2)C(=O)NC2CCN(C)CC2)nc1
groupLabel: false (0)
--
moleculeSmiles: CC(C)COc1ccc(CN(Cc2cnn(C)n2)C(=O)OC2CCN(C)CC2)cc1
groupLabel: false (0)
--
moleculeSmiles: CC(C)COc1ccc(CN(Cc2cnn(C)n2)C(=O)NC2CCN(C)CC2)c(F)c1
groupLabel: true (1)
--
moleculeSmiles: CN1CCC(NC(=O)N(Cc2cnn(C)n2)Cc2ccc(OCC(F)(F)C(F)(F)F)cc2F)CC1
groupLabel: true (1)
--
moleculeSmiles: CCCCOc1ccc(CN(Cc2coc(C)n2)C(=O)NC2CCN(C)CC2)cc1
groupLabel: true (1)

* * *

Biological target: human recombinant 5-HT2C receptor (Homo sapiens (Human), UniProt P28335)
Experiment: 5-HT2C receptor binding inhibition test ([3H]-Mesulergine)
Conditions: Jump-In HEK cell membrane, [3H]-Mesulergine; read-out: h-5-HT2C Ki
measurementType: Ki

compound: CC(C)COc1ccc(CN(Cc2ccc(F)cn2)C(=O)N[C@@H]2CCNC[C@@H]2F)cc1 (single isomer, unassigned)
measurementType: Ki
recordedResult: 10 to 100 nM

compound: CCCCOc1ccc(CN(Cc2coc(C)n2)C(=O)N[C@H]2CCN(C)CC23CC3)cc1
measurementType: Ki
recordedResult: < 10 nM

compound: CC(C)COc1ccc(CN(Cc2nccs2)C(=O)NC2CCN(C)CC2)cc1
measurementType: Ki
recordedResult: 10 to 100 nM

compound: COc1ccc(CN(Cc2ccn(C)n2)C(=O)NC2CCN(C)CC2)nc1
measurementType: Ki
recordedResult: 100 to 5000 nM

compound: CCCCOc1ccc(CN(Cc2coc(C)n2)C(=O)CC2CCN(C)CC2)cc1
measurementType: Ki
recordedResult: < 10 nM

compound: CC(C)COc1ccc(CN(Cc2ccn(C)n2)C(=O)N[C@H]2[C@@H]3CN(C)C[C@@H]32)cc1
measurementType: Ki
recordedResult: 10 to 100 nM

compound: CC(C)COc1ccc(CN(Cc2ccncn2)C(=O)NC2CCN(C)CC2)cc1
measurementType: Ki
recordedResult: 100 to 5000 nM

compound: CN1CCC(NC(=O)N(Cc2ccc(OCC(F)(F)F)cc2)Cc2coc(C3CC3)n2)CC1
measurementType: Ki
recordedResult: < 10 nM

compound: CC(C)COc1ccc(CN(Cc2ccc(F)cn2)C(=O)N[C@H]2CCN(C)C[C@H]2F)cc1
measurementType: Ki
recordedResult: < 10 nM

compound: Cc1nc(CN(Cc2ccc(OCC(C)C)cc2)C(=O)N[C@H]2CCNC[C@H]2F)co1
measurementType: Ki
recordedResult: < 10 nM

compound: CC(C)COc1ccc(CN(Cc2ccn(C)n2)C(=O)NC2CCN(C)C3(CCC3)C2)cc1 (racemic)
measurementType: Ki
recordedResult: < 10 nM

compound: CCCCOc1ccc(CN(Cc2cnn(C)n2)C(=O)N[C@H]2CCN(C)CC23CC3)cc1
measurementType: Ki
recordedResult: < 10 nM

compound: CC(C)COc1ccc(CN(Cc2ccn(C)n2)C(=O)NC2CCN(C)CC23CC3)cc1 (racemic)
measurementType: Ki
recordedResult: < 10 nM

compound: COc1ccc(CN(Cc2ccn(C)c2)C(=O)OC2CCN(C)CC2)cc1
measurementType: Ki
recordedResult: 10 to 100 nM

compound: CC(C)COc1ccc(CN(Cc2ccn(C)n2)C(=O)OC2CCN(C)CC2)cc1
measurementType: Ki
recordedResult: 10 to 100 nM

compound: CC(C)COc1ccc(CN(Cc2ccn(C)c2)C(=O)OC2CCN(C)CC2)cc1
measurementType: Ki
recordedResult: < 10 nM

compound: CC(C)COc1ccc(CN(Cc2cccn2C)C(=O)NC2CCN(C)CC2)cc1
measurementType: Ki
recordedResult: 100 to 5000 nM

compound: CC(C)COc1ccc(CN(Cc2ccccn2)C(=O)NC2CCN(C)CC2)cc1
measurementType: Ki
recordedResult: 10 to 100 nM

compound: CC(C)COc1ccc(CN(Cc2ccn(C)n2)C(=O)NC2C3CCC2CN(C)C3)cc1 (single isomer, unassigned)
measurementType: Ki
recordedResult: 10 to 100 nM

* * *

Listing: Ki of selected compounds
Target: human recombinant 5-HT2C receptor (Homo sapiens (Human), UniProt P28335)
Test: 5-HT2C receptor binding inhibition test ([3H]-Mesulergine)
Conditions: Jump-In HEK cell membrane, [3H]-Mesulergine; read-out: h-5-HT2C Ki
measurementType: Ki

compound: CCCCOc1ccc(CN(Cc2cnn(C)n2)C(=O)N[C@H]2CCN(C)CC23CC3)c(F)c1 [Compound I-097]
systemTested: human recombinant 5-HT2C receptor (Homo sapiens (Human), UniProt P28335)
recordedResult: < 10 nM

compound: CCCCOc1ccc(CN(Cc2coc(C)n2)C(=O)C(F)C2CCN(C)CC2)cc1F (racemic) [Compound I-124]
systemTested: human recombinant 5-HT2C receptor (Homo sapiens (Human), UniProt P28335)
recordedResult: < 10 nM

compound: CC(C)COc1ccc(CN(Cc2cnn(C)c2)C(=O)NC2CCN(C)CC2)cc1 [Compound I-060]
systemTested: human recombinant 5-HT2C receptor (Homo sapiens (Human), UniProt P28335)
recordedResult: 10 to 100 nM

compound: Cc1cccnc1CN(Cc1ccc(OCC(C)C)cc1)C(=O)NC1CCN(C)CC1 [Compound I-023]
systemTested: human recombinant 5-HT2C receptor (Homo sapiens (Human), UniProt P28335)
recordedResult: 10 to 100 nM

compound: CC(C)COc1ccc(CN(Cc2ccco2)C(=O)NC2CCN(C)CC2)cc1 [Compound I-024]
systemTested: human recombinant 5-HT2C receptor (Homo sapiens (Human), UniProt P28335)
recordedResult: < 10 nM

compound: Cc1ccc(CN(Cc2ccc(OCC(C)C)cc2)C(=O)OC2CCN(C)CC2)[nH]1 [Compound I-085]
systemTested: human recombinant 5-HT2C receptor (Homo sapiens (Human), UniProt P28335)
recordedResult: 10 to 100 nM

compound: CCCCOc1ccc(CN(Cc2coc(C)n2)C(=O)N[C@H]2CCN(C)CC23CC3)cc1F [Compound I-090]
systemTested: human recombinant 5-HT2C receptor (Homo sapiens (Human), UniProt P28335)
recordedResult: < 10 nM

compound: CC(C)COc1ccc(CN(Cc2ccn(C)n2)C(=O)N[C@H]2CCNC[C@H]2F)cc1 [Compound I-048]
systemTested: human recombinant 5-HT2C receptor (Homo sapiens (Human), UniProt P28335)
recordedResult: < 10 nM

compound: Cc1nc(CN(Cc2ccc(OCC(C)C)cc2)C(=O)N[C@H]2CCN(C)C[C@H]2F)co1 [Compound I-078]
systemTested: human recombinant 5-HT2C receptor (Homo sapiens (Human), UniProt P28335)
recordedResult: < 10 nM

compound: CCCc1ccc(CN(Cc2coc(C)n2)C(=O)NC2CCN(C)CC2)c(F)c1 [Compound I-114]
systemTested: human recombinant 5-HT2C receptor (Homo sapiens (Human), UniProt P28335)
recordedResult: < 10 nM

* * *

Listing: Ki of selected compounds
Target: human recombinant 5-HT2A receptor (Homo sapiens (Human), UniProt P28223)
Sequence (P28223 whole entry): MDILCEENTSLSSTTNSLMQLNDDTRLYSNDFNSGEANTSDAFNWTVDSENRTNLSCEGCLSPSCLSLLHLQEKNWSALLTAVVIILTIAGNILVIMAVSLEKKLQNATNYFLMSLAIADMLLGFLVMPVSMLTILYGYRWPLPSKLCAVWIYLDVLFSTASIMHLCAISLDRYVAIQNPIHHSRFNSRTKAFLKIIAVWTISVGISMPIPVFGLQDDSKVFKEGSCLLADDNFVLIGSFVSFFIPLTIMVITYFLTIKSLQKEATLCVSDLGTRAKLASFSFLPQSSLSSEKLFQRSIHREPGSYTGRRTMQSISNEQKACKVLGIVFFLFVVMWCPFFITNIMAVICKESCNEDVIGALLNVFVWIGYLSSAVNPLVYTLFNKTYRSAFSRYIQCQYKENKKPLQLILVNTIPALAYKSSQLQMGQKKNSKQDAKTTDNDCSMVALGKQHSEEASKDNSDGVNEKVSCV
Experiment: 5-HT2A receptor binding inhibition test ([3H]-Ketanserin)
Details: Jump-In HEK cell membrane, read-out: h-5-HT2A Ki
measurementType: Ki

compound: CC(C)COc1ccc(CN(Cc2ccc(F)cn2)C(=O)OC2CCN(C)CC2)cc1 [Compound I-093]
measurementType: Ki
recordedResult: < 10 nM
--
compound: CC(C)COc1ccc(CN(Cc2cnn(C)n2)C(=O)NC2CCN(C)CC2)cc1F [Compound I-116]
measurementType: Ki
recordedResult: < 10 nM
--
compound: CC(C)COc1ccc(CN(Cc2cnn(C)c2)C(=O)NC2CCN(C)CC2)cc1 [Compound I-060]
measurementType: Ki
recordedResult: 10 to 100 nM
--
compound: CC(C)COc1ccc(CN(Cc2nn(C)cc2Cl)C(=O)NC2CCN(C)CC2)cc1 [Compound I-041]
measurementType: Ki
recordedResult: 10 to 100 nM
--
compound: CC(C)COc1ccc(CN(Cc2ccncn2)C(=O)NC2CCN(C)CC2)cc1 [Compound I-019]
measurementType: Ki
recordedResult: 10 to 100 nM
--
compound: CC(C)COc1ccc(CN(Cc2ccn(C)n2)C(=O)NC2(C)CCN(C)CC2)cc1 [Compound I-066]
measurementType: Ki
recordedResult: 10 to 100 nM
--
compound: Cc1ccc(CN(Cc2ccc(OCC(C)C)cc2)C(=O)NC2CCN(C)CC2)s1 [Compound I-008]
measurementType: Ki
recordedResult: < 10 nM
--
compound: CCCCOc1ccc(CN(Cc2coc(C)n2)C(=O)CN2CCN(C)CC2)cc1 [Compound I-106]
measurementType: Ki
recordedResult: < 10 nM
--
compound: CN1CCC(NC(=O)N(Cc2ccc(OCC(F)(F)F)cc2)Cc2coc(C3CC3)n2)CC1 [Compound I-111]
measurementType: Ki
recordedResult: < 10 nM
--
compound: CC(C)COc1ccc(CN(Cc2ccco2)C(=O)NC2CCN(C)CC2)cc1 [Compound I-024]
measurementType: Ki
recordedResult: < 10 nM
--
compound: CC(C)COc1ccc(CN(Cc2cccnc2)C(=O)NC2CCN(C)CC2)cc1 [Compound I-057]
measurementType: Ki
recordedResult: 100 to 5000 nM
--
compound: CCCCOc1ccc(CN(Cc2coc(C)n2)C(=O)CC2CCN(C)CC2)cc1 [Compound I-099]
measurementType: Ki
recordedResult: < 10 nM
--
compound: COc1ccc(CN(Cc2coc(C)n2)C(=O)OC2CCN(C)CC2)cc1 [Compound I-095]
measurementType: Ki
recordedResult: 10 to 100 nM
--
compound: CC(C)COc1ccc(CN(Cc2ccn(C)n2)C(=O)N[C@@H]2CCNC[C@H]2F)cc1 (racemic) [Compound I-018]
measurementType: Ki
recordedResult: 10 to 100 nM
--
compound: CC(C)COc1ccc(CN(Cc2ccn(C)n2)C(=O)NC2C3CCC2CN(C)C3)cc1 (single isomer, unassigned) [Compound I-075]
measurementType: Ki
recordedResult: 10 to 100 nM
--
compound: CC(C)COc1ccc(CN(Cc2ccn(C)c2)C(=O)NC2CCN(C)CC2)cc1 [Compound I-040]
measurementType: Ki
recordedResult: < 10 nM
--
compound: CC(C)COc1ccc(CN(Cc2ccn(C)n2)C(=O)NC2CCN(C)CC23CC3)cc1 (racemic) [Compound I-045]
measurementType: Ki
recordedResult: < 10 nM
--
compound: CCCCOc1ccc(CN(Cc2cnn(C)n2)C(=O)NC2CCN(C)CC2)cc1F [Compound I-100]
measurementType: Ki
recordedResult: < 10 nM
--
compound: CCCCOc1ccc(CN(Cc2coc(CF)n2)C(=O)NC2CCN(C)CC2)cc1 [Compound I-119]
measurementType: Ki
recordedResult: < 10 nM
--
compound: CC(C)COc1ccc(CN(Cc2cc(C(F)(F)F)ccn2)C(=O)NC2CCN(C)CC2)cc1 [Compound I-056]
measurementType: Ki
recordedResult: 10 to 100 nM
--
compound: CC(C)COc1ccc(CN(Cc2ccn(C)n2)C(=O)NC2CCNCC2)cc1 [Compound I-079]
measurementType: Ki
recordedResult: < 10 nM
